Listed next: entries and their corresponding Ca.
- Organism: Rattus norvegicus
- method: Open TG-GATES - Regimen: Daily Repeat
- Type: toxicity, organism-based, Sprague-Dawley
- Parameters: regimen Daily Repeat, gender Male, age 6 weeks
- protocol_conditions: in vivo, po, 0 mg/kg, […], tissue Plasma, route gavage, dose level Control, time 7 day
test_readout: Ca (mg/dL)

- compound: "CN(C)CCC(c1ccc(Cl)cc1)c1ccccn1 (stereo not drawn)"
  recorded_number: 11.6
- compound: "Nc1c2c(nc3ccccc13)CCCC2"
  recorded_number: 10.5
- compound: "CCOc1ccc(NC(C)=O)cc1"
  recorded_number: 10.9
- compound: "CCCc1cc(=O)[nH]c(=S)[nH]1"
  recorded_number: 11.5
- compound: "NC1=NC(=O)C(c2ccccc2)O1 (stereo not drawn)"
  recorded_number: 10.6
- compound: "Brc1ccccc1"
  recorded_number: 11
- compound: "O=C(OC[C@H]1O[C@@H](OC(=O)c2cc(O)c(O)c(OC(=O)c3cc(O)c(O)c(O)c3)c2)[C@H](OC(=O)c2cc(O)c(O)c(OC(=O)c3cc(O)c(O)c(O)c3)c2)[C@@H](OC(=O)c2cc(O)c(O)c(OC(=O)c3cc(O)c(O)c(O)c3)c2)[C@@H]1OC(=O)c1cc(O)c(O)c(OC(=O)c2cc(O)c(O)c(O)c2)c1)c1cc(O)c(O)c(OC(=O)c2cc(O)c(O)c(O)c2)c1"
  recorded_number: 10.8
- compound: "CC(C)NNC(=O)c1ccncc1"
  recorded_number: 10.6
